All values here come from patent US4463014A.

Tested on: beetles
Test Summary: Lethal activity against beetles (contact with film on glass)
Type: in vivo
Particulars: contact with film on glass from acetone solutions
Parameter Measured: CL50 in mg/m^2 (mg/m^2)
Number only, in mg/m^2; omit the unit.

Previously resolved entries follow.
CC1(C)[C@H](C(=O)O[C@H](C#N)c2ccc(F)c(Oc3ccccc3)c2)[C@@H]1C(Br)C(Br)(Br)Br (some centres unmarked) [Example 5]	0.037
CC1(C)[C@H](C=C2CCCC2)[C@H]1C(=O)O[C@H](C#N)c1ccc(F)c(Oc2ccccc2)c1 [Example 8]	0.054
CC(C)[C@H](C(=O)O[C@H](C#N)c1ccc(F)c(Oc2ccccc2)c1)c1ccc(OC(F)F)cc1 [Example 12]	0.23
CC1(C)[C@H](C=C2CCC2)[C@H]1C(=O)O[C@H](C#N)c1ccc(F)c(Oc2ccccc2)c1 [Example 13]	0.029
CC1(C)[C@H](C(=O)O[C@H](C#N)c2ccc(F)c(Oc3ccccc3)c2)[C@@H]1C=C1CCCC1 [Example 9]	0.083
CC1(C)C(C(=O)O[C@H](C#N)c2ccc(F)c(Oc3ccccc3)c2)C1(C)C [Example 1]	0.22
CC1(C)[C@H](C(=O)O[C@H](C#N)c2ccc(F)c(Oc3ccccc3)c2)[C@H]1C(Br)C(Br)(Br)Br (some centres unmarked) [Example 4]	0.074
CC1(C)[C@H](C(=O)O[C@H](C#N)c2ccc(F)c(Oc3ccccc3)c2)[C@H]1C(Br)C(Cl)(Cl)Br (mixture of isomers) [Example 2]	0.084

IN: Recall the recorded CL50 in mg/m^2 for CC1(C)[C@H](C(=O)O[C@H](C#N)c2ccc(F)c(Oc3ccccc3)c2)[C@@H]1C=C1CC1 [Example 14] with beetles and state it.
OUT: 0.049

###

Tested on: beetles
Test Summary: Lethal activity against beetles (contact with film on glass)
Assay type: in vivo
Particulars: contact with film on glass from acetone solutions
Parameter Measured: CL50 in mg/m^2 (mg/m^2)
The reply should be a number in mg/m^2, with the unit left off.

IN: Please report the recorded CL50 in mg/m^2 for `CC1(C)[C@H](C(=O)O[C@H](C#N)c2ccc(F)c(Oc3ccccc3)c2)[C@@H]1C=C(F)F` .
OUT: 0.029

IN: Another molecule: `CC1(C)[C@H](C=C(F)F)[C@H]1C(=O)O[C@H](C#N)c1ccc(F)c(Oc2ccccc2)c1`
OUT: 0.126

###

Tested on: beetles
Test Summary: Lethal activity against beetles (contact with film on glass)
Type: in vivo
Particulars: contact with film on glass from acetone solutions
Quick reference: CL50 in mg/m^2 of the listed items.

CC1(C)[C@H](C(=O)O[C@H](C#N)c2ccc(F)c(Oc3ccccc3)c2)[C@@H]1C=C1CCC1	0.018 mg/m^2
CC1(C)[C@H](C=C2CC2)[C@H]1C(=O)O[C@H](C#N)c1ccc(F)c(Oc2ccccc2)c1	0.137 mg/m^2

Now for the compound whose CL50 in mg/m^2 we want.
IN: Which CL50 in mg/m^2 value is on record for CC1(C)[C@H](C(=O)O[C@H](C#N)c2ccc(F)c(Oc3ccccc3)c2)[C@@H]1C(Br)C(Cl)(Cl)Br (stereo partly drawn) ?
OUT: 0.021 mg/m^2
